- Target Desc: Platelet-derived growth factor receptor beta (Mus musculus)
- Method Summary: Inhibition of PDGF-induced PDGFRbeta phosphorylation in mouse NIH3T3 cells incubated for 1 hr prior to PDGF induction measured after 15 mins by fluorescence assay
- Assay type: cell-based
Assay Metric: IC50 (nM)

COCCOc1ccn2c(-c3ccc4cccc(O[C@@H]5CCNC[C@@H]5F)c4n3)cnc2c1 (relative stereo): 4
COCCOc1ccn2c(-c3ccc4cccc(O[C@H]5CC[C@H](N)CC5)c4n3)cnc2c1: 28

[A] COCCOc1ccn2c(-c3ccc4cccc(O[C@@H]5CCCNC5)c4n3)cnc2c1
[B] COCCOc1ccn2c(-c3ccc4cccc(O[C@@H]5CCNC[C@H]5O)c4n3)cnc2c1 (racemic)
[C] COCCOc1ccn2c(-c3ccc4cccc(OCC5(F)CCNCC5)c4n3)cnc2c1
Please list these in order of increasing IC50. Thank you! // respond by listing labels in the order requested
C, B, A

* * *

The following are reported IC50 results, target or system Cytochrome P450 3A4 (Homo sapiens).

COCCOc1ccn2c(-c3ccc4cccc(O[C@H]5CCNC[C@@H]5F)c4n3)cnc2c1: > 10 µM
COCCOc1ccn2c(-c3ccc4cccc(O[C@@H]5CCNC[C@H]5F)c4n3)cnc2c1 (relative stereo): > 10 µM

The recorded IC50 for COCCOc1ccn2c(-c3ccc4cccc(OC5CCNCC5)c4n3)cnc2c1 is > 10 µM

* * *

Let's go through some IC50 measurements on Mast/stem cell growth factor receptor Kit (Homo sapiens, UniProt P10721) together.
Sequence (P10721 whole entry): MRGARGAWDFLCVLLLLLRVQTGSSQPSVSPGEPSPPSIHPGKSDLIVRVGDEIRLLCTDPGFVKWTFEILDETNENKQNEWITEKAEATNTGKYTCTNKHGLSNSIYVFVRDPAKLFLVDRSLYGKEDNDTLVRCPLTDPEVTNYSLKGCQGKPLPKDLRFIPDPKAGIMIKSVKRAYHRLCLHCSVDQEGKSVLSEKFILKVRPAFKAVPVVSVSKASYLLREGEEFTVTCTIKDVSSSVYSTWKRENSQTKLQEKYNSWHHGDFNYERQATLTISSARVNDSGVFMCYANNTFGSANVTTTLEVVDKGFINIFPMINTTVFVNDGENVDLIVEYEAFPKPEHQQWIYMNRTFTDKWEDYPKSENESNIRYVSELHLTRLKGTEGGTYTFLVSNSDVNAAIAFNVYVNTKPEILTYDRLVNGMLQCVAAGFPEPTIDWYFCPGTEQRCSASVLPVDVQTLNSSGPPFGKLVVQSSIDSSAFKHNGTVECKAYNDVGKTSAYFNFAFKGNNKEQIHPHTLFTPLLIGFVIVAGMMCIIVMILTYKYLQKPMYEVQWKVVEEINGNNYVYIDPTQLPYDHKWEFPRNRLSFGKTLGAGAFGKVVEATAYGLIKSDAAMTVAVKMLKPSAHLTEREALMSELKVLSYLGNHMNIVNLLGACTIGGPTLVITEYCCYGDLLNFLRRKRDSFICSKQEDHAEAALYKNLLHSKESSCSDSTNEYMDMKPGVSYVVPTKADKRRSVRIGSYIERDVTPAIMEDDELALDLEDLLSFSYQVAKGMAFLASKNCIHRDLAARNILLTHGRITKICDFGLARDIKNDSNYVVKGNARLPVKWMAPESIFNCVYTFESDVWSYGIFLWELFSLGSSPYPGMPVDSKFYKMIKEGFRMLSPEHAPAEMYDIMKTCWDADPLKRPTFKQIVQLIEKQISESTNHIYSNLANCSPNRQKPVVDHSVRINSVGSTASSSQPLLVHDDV
Assay Metric: IC50 (nM)

[1] COCCOc1ccn2c(-c3ccc4cccc(O[C@H]5CCNC[C@@H]5F)c4n3)cnc2c1
[2] COCCOc1ccn2c(-c3ccc4cccc(OC5CCNCC5)c4n3)cnc2c1
Among 1 and 2 , which shows a numerically higher IC50 result? Lab note: record the label of whichever item you select.
2
(2: 961 nM, 1: 491 nM)

* * *

- Method Summary: AUC in rat at 10 mg/kg, po
- Type: ADME, organism-based, Plasma
- Parameters: dose 10 mg/kg, route oral
- Condition Details: plasma
Assay Metric: AUC (ng·h/mL)

COCCOc1ccn2c(-c3ccc4cccc(O[C@@H]5CCNC[C@@H]5F)c4n3)cnc2c1 (relative stereo): 730

[1] COCCOc1ccn2c(-c3ccc4cccc(O[C@@H]5CCNC[C@H]5F)c4n3)cnc2c1
[2] COCCOc1ccn2c(-c3ccc4cccc(OC5CCNCC5)c4n3)cnc2c1
Between 1 and 2 , whose recorded AUC is greater? To answer, give the label that identifies your chosen option.
1

* * *

- Method Summary: AUC in cynomolgus monkey at 30 mg/kg, po
- Assay type: ADME, organism-based, Macaca fascicularis
- Parameters: dose 30 mg/kg, route oral
- Condition Details: plasma
Assay Metric: AUC (ng·h/mL)
Numeric answer only, unit ng·h/mL assumed.

Form: molecule = COCCOc1ccn2c(-c3ccc4cccc(O[C@@H]5CCNC[C@H]5F)c4n3)cnc2c1 ; AUC = 950

* * *

- Target Desc: Platelet-derived growth factor receptor beta (Mus musculus, UniProt P05622)
- Sequence (P05622 whole entry): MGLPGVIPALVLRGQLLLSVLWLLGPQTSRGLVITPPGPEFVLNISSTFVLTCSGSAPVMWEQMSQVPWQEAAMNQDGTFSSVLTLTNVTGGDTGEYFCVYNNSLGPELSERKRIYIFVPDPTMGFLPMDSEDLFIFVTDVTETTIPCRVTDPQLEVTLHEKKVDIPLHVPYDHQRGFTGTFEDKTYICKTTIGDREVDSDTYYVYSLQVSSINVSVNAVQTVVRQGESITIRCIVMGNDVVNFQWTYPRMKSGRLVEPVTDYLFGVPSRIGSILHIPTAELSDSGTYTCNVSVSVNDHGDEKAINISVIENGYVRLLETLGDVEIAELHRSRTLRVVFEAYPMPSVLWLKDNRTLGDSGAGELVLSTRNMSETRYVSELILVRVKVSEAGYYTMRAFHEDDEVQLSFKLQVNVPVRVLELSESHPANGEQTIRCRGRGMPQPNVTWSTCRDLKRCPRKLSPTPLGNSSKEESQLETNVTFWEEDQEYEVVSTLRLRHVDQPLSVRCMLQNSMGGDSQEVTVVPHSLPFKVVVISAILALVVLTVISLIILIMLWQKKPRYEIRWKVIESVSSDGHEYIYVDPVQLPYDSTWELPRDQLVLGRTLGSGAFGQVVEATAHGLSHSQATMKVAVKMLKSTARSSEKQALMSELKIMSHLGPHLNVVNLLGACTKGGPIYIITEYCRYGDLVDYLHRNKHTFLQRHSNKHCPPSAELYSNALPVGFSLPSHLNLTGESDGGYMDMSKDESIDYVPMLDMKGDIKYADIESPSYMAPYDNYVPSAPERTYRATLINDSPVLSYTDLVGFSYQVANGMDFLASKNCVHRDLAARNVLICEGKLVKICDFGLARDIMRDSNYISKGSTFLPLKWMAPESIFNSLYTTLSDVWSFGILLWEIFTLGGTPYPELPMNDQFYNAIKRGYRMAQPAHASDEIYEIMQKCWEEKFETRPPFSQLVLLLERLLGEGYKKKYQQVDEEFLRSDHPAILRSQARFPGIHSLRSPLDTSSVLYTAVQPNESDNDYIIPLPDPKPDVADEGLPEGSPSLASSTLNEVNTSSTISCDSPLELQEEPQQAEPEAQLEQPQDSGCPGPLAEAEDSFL
- Method Summary: Inhibition of PDGF-induced PDGFRbeta phosphorylation in mouse NIH3T3 cells incubated for 1 hr prior to PDGF induction measured after 15 mins by fluorescence assay
- Type: cell-based
pIC50: −log10 of the molar value.
Assay Metric: pIC50

[1] COCCOc1ccn2c(-c3ccc4cccc(O[C@H]5CCCNC5)c4n3)cnc2c1
[2] COCCOc1ccn2c(-c3ccc4cccc(OC5CCN(C)CC5)c4n3)cnc2c1
[3] COCCOc1ccn2c(-c3ccc4cccc(OCC(C)(C)CN)c4n3)cnc2c1
[4] COCCOc1ccn2c(-c3ccc4cccc(OCC5CCNCC5)c4n3)cnc2c1
[5] COCCOc1ccn2c(-c3ccc4cccc(OC5CCNCC5)c4n3)cnc2c1
Arrange the items listed above so that pIC50 rises from first to last. Please, when replying, give the labels in the order that was requested.
4, 3, 2, 1, 5
(4: 7.47, 3: 7.74, 2: 8.05, 1: 8.30, 5: 8.52)
